- run_description: activity coefficient (dimensionless); of the first substance listed, at infinite dilution; xn = mol fraction of the nth substance listed
- condition_set: 313.15 K; 101.33 kPa; Liquid; Chromatography; x1 = 0
value_type: activity coefficient

Worked examples, 2 molecules total:
molecule: CCCCCCCCC [nonane] + CC(CC(C)(C)C)CP(=O)([O-])CC(C)CC(C)(C)C.CCCCCCCCCCCCCC[P+](CCCCCC)(CCCCCC)CCCCCC
activity coefficient: 1.04
--
molecule: C1CCCCCCC1 [cyclooctane] + CC(CC(C)(C)C)CP(=O)([O-])CC(C)CC(C)(C)C.CCCCCCCCCCCCCC[P+](CCCCCC)(CCCCCC)CCCCCC
activity coefficient: 0.7

a = C=CCCCCCCC [1-nonene] + CC(CC(C)(C)C)CP(=O)([O-])CC(C)CC(C)(C)C.CCCCCCCCCCCCCC[P+](CCCCCC)(CCCCCC)CCCCCC
b = C1=CCCCC1 [cyclohexene] + CC(CC(C)(C)C)CP(=O)([O-])CC(C)CC(C)(C)C.CCCCCCCCCCCCCC[P+](CCCCCC)(CCCCCC)CCCCCC
Q: Hello, I am sorting some records. Could you say if a or b has the smaller activity coefficient value? Identify your selection by its label.
Ans: b
(b: 0.57, a: 0.91)

---

- run_description: activity coefficient (dimensionless); of the first substance listed, at infinite dilution; xn = mol fraction of the nth substance listed
- condition_set: 313.15 K; 101.33 kPa; Liquid; Chromatography; x1 = 0
value_type: activity coefficient

See these solved cases before continuing.
compound: CCC(C)(C)C [2,2-dimethylbutane] + CC(CC(C)(C)C)CP(=O)([O-])CC(C)CC(C)(C)C.CCCCCCCCCCCCCC[P+](CCCCCC)(CCCCCC)CCCCCC
activity coefficient: 0.78
--
compound: CCCCCCCCCC [decane] + CC(CC(C)(C)C)CP(=O)([O-])CC(C)CC(C)(C)C.CCCCCCCCCCCCCC[P+](CCCCCC)(CCCCCC)CCCCCC
activity coefficient: 1.22
--
compound: Cc1ccccc1 [toluene] + CC(CC(C)(C)C)CP(=O)([O-])CC(C)CC(C)(C)C.CCCCCCCCCCCCCC[P+](CCCCCC)(CCCCCC)CCCCCC
activity coefficient: 0.5
--
compound: Cc1cccc(C)c1 [1,3-dimethylbenzene] + CC(CC(C)(C)C)CP(=O)([O-])CC(C)CC(C)(C)C.CCCCCCCCCCCCCC[P+](CCCCCC)(CCCCCC)CCCCCC
activity coefficient: 0.63
--
compound: c1ccccc1 [benzene] + CC(CC(C)(C)C)CP(=O)([O-])CC(C)CC(C)(C)C.CCCCCCCCCCCCCC[P+](CCCCCC)(CCCCCC)CCCCCC
activity coefficient: 0.42
--
compound: CCc1ccccc1 [ethylbenzene] + CC(CC(C)(C)C)CP(=O)([O-])CC(C)CC(C)(C)C.CCCCCCCCCCCCCC[P+](CCCCCC)(CCCCCC)CCCCCC
activity coefficient: 0.57

P = c1ccsc1 [thiophene] + CC(CC(C)(C)C)CP(=O)([O-])CC(C)CC(C)(C)C.CCCCCCCCCCCCCC[P+](CCCCCC)(CCCCCC)CCCCCC
Q = CO [methanol] + CC(CC(C)(C)C)CP(=O)([O-])CC(C)CC(C)(C)C.CCCCCCCCCCCCCC[P+](CCCCCC)(CCCCCC)CCCCCC
Q: Which of the two gives a bigger number for activity coefficient: P or Q ? Mark your answer with the label of the selected entry.
Ans: P
(P: 0.35, Q: 0.03)

Origin of measurements: the NIST ThermoML archive (doi:10.1016/j.jct.2019.05.011)
